Task for the reader: assign each of the following compounds its reported Fold vs PTX (fold increased sensitivity).
tested on: P-gp overexpressing prostate cancer cell line, DU145TXR; test: MTT cell viability assay, resensitization to paclitaxel; type: cell-based, human; conditions: 3 μM inhibitor, vs paclitaxel alone
Give bare numbers, in fold.

Below, 3 compounds whose answers are already recorded.
compound	Fold vs PTX (fold increased sensitivity) [fold]
Cc1cc(C)c(-c2cc(NC(=O)CSCC(=O)N3c4ccccc4CCc4ccccc43)n(-c3ccccc3)n2)cc1C [29-227]	13
Cc1cc(C)c(-c2cc(NC(=O)CSCC(=O)Nc3ccc4ccccc4c3)n(-c3ccccc3)n2)cc1C [29-231]	14
Cc1cc(C)c(-c2cc(NC(=O)CSc3nnc(C4CC4)[nH]3)n(-c3ccccc3)n2)cc1C [compound 29, reference compound]	3

Problem: Field request: Fold vs PTX (fold increased sensitivity) | item: Cc1cc(C)c(-c2cc(NC(=O)CSc3cccc(NC(=O)c4cncc(Br)c4)c3)n(-c3ccccc3)n2)cc1C [29-551]
Solution: 38
